System: VchCAST RNA-guided transposition machinery (E. coli BL21(DE3) host, lacZ target)
Experiment: relative integration efficiency (T-RL orientation) vs wild-type transposon end (log2 (normalized fold change)); transposon end mutated: left end; higher = more efficient transposition
Consider the following sequences; for each one, report its relative integration efficiency (log2).

Which relative integration efficiency (log2) is listed for AATGTTGTTGATGCAACCATAAAGTGATATTTAATAATTATTTATAATCAGCAACCAACCATATATTGATATCTCACAAAACAACCATAAGTTGATATTTTTGTGAATCGAGTATTTCAGCAAAACTACTGCAGTAAGAAAGTTACTTCGTG ?
-6.44

Which relative integration efficiency (log2) is listed for AATGTTGTTGATGCAACCATAAAGTGATATTTAATAATTATTTATAATCAGCAAAGGCCAACACCCCACCAACGCGCGGTCGCGAGACACCCCACCAACGCCTGGTCGCGGGGGTGTCCGATCTGATTTCAGCAAAACTACTGCAGTAAGAA ?
-6.56

Which relative integration efficiency (log2) is listed for AATGTTGTTGATGCAACCATAAAGTGATATTTAATAACAACCATAAAGTGATATTTAACTTAACCACCAACCATATATTGATATCTCACAAAACAACCATAAGTTGATATTTTTGTGAATCGAGTATTTCAGCAAAACTACTGCAGTAAGAA ?
-4.66

Which relative integration efficiency (log2) is listed for AATGTTGTTGCAACCATAAAGTGATATTTAATAATTATTTATAATCAGCAACTTAACCACAAAACAACCATATATTGATATCTCACAAAACAACCATAAGTTGATATTTTTGTGAATCGAGTATTTCAGCAAAACTACTGCAGTAAGAAAGT ?
-0.203

Which relative integration efficiency (log2) is listed for AATGTTGTTGATGCAACCATAAAGTGATATTTAATAATTATTTATAATCAGCAACTTAACCACAAAACAACCATAAAGTGATATTTAACAAAAGTTGGTATTCAACTATAAAATGTGAATCGAGTATTTCAGCAAAACTACTGCAGTAAGAA ?
-2.53

Which relative integration efficiency (log2) is listed for AATGTTGTTGATGCAACCATAAAGTGATATTTAATAATTATTTATAATCAGCAACTTAACCACAAACAACCATATATTGATATCTCACAAAACAACCATAAGTTGATATTTTATGTGAATCGAGTATTTCAGCAAAACTACTGCAGTAAGAA ?
-0.754

Which relative integration efficiency (log2) is listed for AATGTTGTTGATGCAACCATAAAATGATAATTAATAATTATTTATAATCAGCAACTTAACCACAAAACAACCATATATTGATATCTCACAAAAGTTGGTATTCAACTATAAAATGTGAATCGAGTATTTCAGCAAAACTACTGCAGTAAGAA ?
-2.59

Which relative integration efficiency (log2) is listed for AATGTTGTTGATGCAACCATAAAGTGATATTTAATAATTATTTATAATCAGCAACTTAACCACAAAAACCAACGCGCGGTCGCGAGACACCCCACCAACGCCTGGTCGCGGGGGTGTCCGATCTGATTTCAGCAAAACTACTGCAGTAAGAA ?
-7.55

Which relative integration efficiency (log2) is listed for AATGTTGTTGATGCAACCATAAAGTGATTAAATATAATTATTTATAATCAGCAACTTAACCACAAAACAACCATATATTGATTAGAGACAAAACAACCATAAGTTGATTAAAATGTGAATCGAGTATTTCAGCAAAACTACTGCAGTAAGAA ?
-2.17

Which relative integration efficiency (log2) is listed for AATGTTGTTGATGCAACCATAAAGTGATATTTAGGCAGTGAGCGCAACGCAATTCTTAACCACAAAACAACCATATATTGATATCTCACAAAACAACCATAAGTTGATATTTTTGTGAATCGAGTATTTCAGCAAAACTACTGCAGTAAGAA ?
-4.22

Which relative integration efficiency (log2) is listed for AATGTTGTTGATGCAACCATAAAGTGATATTTACCGACTGTCTGCCATCCGCCGCTGCACCGCAGCCCAACCATATATTGATATCTCACAAAACAACCATAAGTTGATATTTTTGTGAATCGAGTATTTCAGCAAAACTACTGCAGTAAGAA ?
-3.24

Which relative integration efficiency (log2) is listed for AATGTTGTTGATGCACCCATAAATTGATATTGCATAATTATTTATAATCAGCAACTTAACCACAAAACACCCATAAATTGATATTGCACAAAAGTTGGTATTCAACTATAAAATGTGAATCGAGTATTTCAGCAAAACTACTGCAGTAAGAA ?
-4.32

Which relative integration efficiency (log2) is listed for AATGTTGTTGATGCAACCATAAAGTGATATTTAATAATTATTTATACAACCATATATTGATATCTCACAAAACAACCATAAGTTGATATTTTTGTGAATCGAGTATTTCAGCAAAACTACTGCAGTAAGAAAGTTACTTCGTGGTATGGGAG ?
-6.01

Which relative integration efficiency (log2) is listed for AATGTTGTTGATGCAACCATAAAGTGATATTTAATAATTATTTATAATCAGCAACTTAACCACACAACCATATATTGATATCTCACAAAACAACCATAAGTTGATATTTTTGTGAATCGAGTATTTCAGCAAAACTACTGCAGTAAGAAAGT ?
-4.27

Which relative integration efficiency (log2) is listed for AATGTTGTTGATGCAACCATAAAGTGATATTTAATAATTATTTATAATCAGCAACTTAACCACAACCATATATTGATATCTCACAAAACAACCATAAGTTGATATTTTCAAAATGTGAATCGAGTATTTCAGCAAAACTACTGCAGTAAGAA ?
-5.07

Which relative integration efficiency (log2) is listed for AATGTTGTTGATGCAACCATAAAGTGATATTTAATAATTATTTATAATCAGCAACTTAACCACAAAACAACCATATATTGATATCTCACAAAACAACCATAAGTGTCGCGGGGGTGTCCGATCTGATTTCAGCAAAACTACTGCAGTAAGAA ?
-2.05

Which relative integration efficiency (log2) is listed for AATGTTGTTGATGCAACCATAAAGTGATATTTACGAGCCGAGCTCGTGCCCGGTGCCGCGGCAGACGCAACCATATATTGATATCTCACAAAACAACCATAAGTTGATATTTTTGTGAATCGAGTATTTCAGCAAAACTACTGCAGTAAGAA ?
-2.33
